This collection of values is drawn from patent US20230303513A1.

Some compounds, each annotated with its measured pEC50.
- target or system: human FPR1 (Homo sapiens (Human))
- Sequence (P21462 whole entry): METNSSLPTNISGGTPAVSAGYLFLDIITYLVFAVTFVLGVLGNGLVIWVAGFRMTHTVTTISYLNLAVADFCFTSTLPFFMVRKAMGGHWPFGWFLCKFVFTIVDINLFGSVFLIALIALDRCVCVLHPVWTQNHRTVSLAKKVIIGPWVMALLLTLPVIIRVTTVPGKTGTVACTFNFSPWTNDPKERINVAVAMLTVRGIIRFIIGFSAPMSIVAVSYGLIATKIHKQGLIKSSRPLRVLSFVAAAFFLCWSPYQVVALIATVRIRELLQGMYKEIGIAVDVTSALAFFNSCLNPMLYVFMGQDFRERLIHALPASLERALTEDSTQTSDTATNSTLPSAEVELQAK
- assay text: FPR1 cyclic adenosine monophosphate (cAMP) assay
- Format: cell-based
- cond: CHO cells overexpressing human FPR1; forskolin 10 μM, IBMX 200 μM; inhibition of cAMP production, HTRF; read-out: hFPR1 cAMP EC50
pEC50: −log10 of the molar value.

Some solved cases for reference:
compound | pEC50
COc1cc(F)c([C@@H]2CN(c3nccc(N4CCN(S(C)(=O)=O)CC4)c3C(F)(F)F)C(=O)[C@H]2NC(=O)N[C@H]2CC[C@H](C(F)F)CC2)c(F)c1 | < 5.00
COc1cc(F)c([C@@H]2CN(c3nccc(NCC4CCOC4)c3C(F)(F)F)C(=O)[C@H]2NC(=O)N[C@H]2CC[C@H](C(F)F)CC2)c(F)c1 (single isomer, unassigned) [Example 74] | < 6.00
COc1cc(F)c([C@@H]2CN(c3nccc(NCCS(C)(=O)=O)c3C(F)(F)F)C(=O)[C@H]2NC(=O)N[C@H]2CC[C@H](C(F)F)CC2)c(F)c1 | < 5.30
COc1cc(F)c([C@@H]2CN(c3ncccc3C(F)(F)F)C(=O)[C@H]2NC(=O)NC2CCc3cc(OC)ccc3C2)c(F)c1 (some centres unmarked) [Example 47] | < 5.00

As a next step, examine the compound that follows.
Ask | Requested read-out: pEC50. Entry: COc1cc(F)c([C@@H]2CN(c3ncccc3C(F)(F)F)C(=O)[C@H]2NC(=O)NC2CCC3(CC2)CC3)c(F)c1
Reply | < 5.00
